Where do these numbers come from? They come from patent US20220378931A1.

Recorded kon, one value per entry.
biological target: T1, human serum albumin (human, UniProt P02768 25-609); test: SPR (Biacore 8K), albumin immobilised, 25 C, 1:1 kinetics
T1 construct: bought protein, amine-coupled to a CM5 chip; also called Human SA; HSA
Kindly provide the numeric value in M⁻¹ s⁻¹ only, without the unit symbol.

Worked examples, 3 binders total:
Binder | Test value
INS Analog 28 (other, single-chain insulin B-L2-A-L1-VHH fusion; also called Ex. 28) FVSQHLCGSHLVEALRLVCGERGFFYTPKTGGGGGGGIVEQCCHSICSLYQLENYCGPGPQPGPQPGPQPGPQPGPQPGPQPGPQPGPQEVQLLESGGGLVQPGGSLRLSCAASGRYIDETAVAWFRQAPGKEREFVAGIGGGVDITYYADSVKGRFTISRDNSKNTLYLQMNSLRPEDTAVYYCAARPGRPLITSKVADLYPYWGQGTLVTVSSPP | 160000
INS Analog 29 (other, single-chain insulin B-L2-A-L1-VHH fusion; also called Ex. 29) FVSQHLCGSHLVEALRLVCGERGFHYTPKTGGGGGGGIVEQCCHSICSLYQLENYCGGGGGQGGGGQGGGGQGGGGQGGGGQEVQLLESGGGLVQPGGSLRLSCAASGRYIDETAVAWFRQAPGKEREFVAGIGGGVDITYYADSVKGRFTISRDNSKNTLYLQMNSLRPEDTAVYYCAARPGRPLITSKVADLYPYWGQGTLVTVSSPP | 180000
INS Analog 26 (other, single-chain insulin B-L2-A-L1-VHH fusion; also called Ex. 26) FVSQHLCGSHLVEALRLVCGERGFFYTPKTGGGGGGGIVEQCCTSICSLYQLENYCGPGPQPGPQPGPQPGPQPGPQPGPQPGPQPGPQEVQLLESGGGLVQPGGSLRLSCAASGRYIDETAVAWFRQAPGKEREFVAGIGGGVDITYYADSVKGRFTISRDNSKNTLYLQMNSLRPEDTAVYYCAARPGRPLITSKVADLYPYWGQGTLVTVSSPP | 190000

kon for INS Analog 24 (other, single-chain insulin B-L2-A-L1-VHH fusion; also called Ex. 24) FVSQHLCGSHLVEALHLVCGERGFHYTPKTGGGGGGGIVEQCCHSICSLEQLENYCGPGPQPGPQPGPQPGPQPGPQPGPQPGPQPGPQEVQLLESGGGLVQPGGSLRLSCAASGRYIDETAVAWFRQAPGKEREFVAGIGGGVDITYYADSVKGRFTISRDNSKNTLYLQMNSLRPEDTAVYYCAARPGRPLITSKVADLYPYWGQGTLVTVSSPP is 140000

kon for INS Analog 25 (other, single-chain insulin B-L2-A-L1-VHH fusion; also called Ex. 25) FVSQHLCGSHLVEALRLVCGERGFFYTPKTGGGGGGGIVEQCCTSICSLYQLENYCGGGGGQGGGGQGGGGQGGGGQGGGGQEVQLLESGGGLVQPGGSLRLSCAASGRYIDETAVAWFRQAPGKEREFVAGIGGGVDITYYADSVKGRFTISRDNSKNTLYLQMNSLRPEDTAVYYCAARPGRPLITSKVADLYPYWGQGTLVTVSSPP is 260000

kon for INS Analog 27 (other, single-chain insulin B-L2-A-L1-VHH fusion; also called Ex. 27) FVSQHLCGSHLVEALRLVCGERGFFYTPKTGGGGGGGIVEQCCHSICSLYQLENYCGGGGGQGGGGQGGGGQGGGGQGGGGQEVQLLESGGGLVQPGGSLRLSCAASGRYIDETAVAWFRQAPGKEREFVAGIGGGVDITYYADSVKGRFTISRDNSKNTLYLQMNSLRPEDTAVYYCAARPGRPLITSKVADLYPYWGQGTLVTVSSPP is 170000

kon for INS Analog 30 (other, single-chain insulin B-L2-A-L1-VHH fusion; also called Ex. 30) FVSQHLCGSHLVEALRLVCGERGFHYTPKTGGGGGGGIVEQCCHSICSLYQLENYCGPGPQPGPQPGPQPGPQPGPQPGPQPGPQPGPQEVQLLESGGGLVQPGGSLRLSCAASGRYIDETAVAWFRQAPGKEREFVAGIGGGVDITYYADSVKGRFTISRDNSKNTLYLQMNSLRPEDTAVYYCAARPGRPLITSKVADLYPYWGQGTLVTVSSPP is 160000
